System under test: T1, human IL-12 (human, UniProt P29460 23-328; P29459 23-219)
T1 construct: also called Interleukin-12
T1 sequence 1: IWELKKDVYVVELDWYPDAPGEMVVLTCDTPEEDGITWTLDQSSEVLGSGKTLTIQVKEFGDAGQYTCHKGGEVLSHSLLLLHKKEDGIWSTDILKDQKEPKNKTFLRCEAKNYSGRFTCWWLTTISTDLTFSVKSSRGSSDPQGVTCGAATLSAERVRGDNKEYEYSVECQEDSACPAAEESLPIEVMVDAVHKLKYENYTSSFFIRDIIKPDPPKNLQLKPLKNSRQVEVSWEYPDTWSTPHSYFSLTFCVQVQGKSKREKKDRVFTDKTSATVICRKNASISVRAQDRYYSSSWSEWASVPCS
T1 sequence 2: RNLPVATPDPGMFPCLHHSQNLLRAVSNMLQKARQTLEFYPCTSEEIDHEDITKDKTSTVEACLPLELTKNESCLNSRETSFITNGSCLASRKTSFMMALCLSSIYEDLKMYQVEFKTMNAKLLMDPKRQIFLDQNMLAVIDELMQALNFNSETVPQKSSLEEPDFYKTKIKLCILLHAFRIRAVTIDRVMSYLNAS
Protocol text: SPR (Biacore T200), 37 C, pH 7.4; captured antibody, IL-12 analyte
Kindly supply the reported pKd values for the records listed here.
Reminder that pKd means the negative base-10 logarithm of the concentration expressed in mol/L.

### Prompt Entry Anti-IL-12 antibody Ab1 variant G44Q VH/- (antibody, name in Kabat numbering, V domains shown, Ab1 with VH/VL interface substitutions; Kabat numbering) VH: QVQLVQSGAEVKKPGSSVKVSCKASGGTFSDYYLHWVRQAPGQQLEWMGWIDPENGDTEYAPKFQGRVTITADESTSTAYMELSSLRSEDTAVYYCARNKELRYFDVWGQGTLVTVSS VL: DIVMTQSPLSLPVTPGEPASISCRASQSISINLHWYQQKPGQAPRLLIYFASQSISGVPSRFSGSGSGTDFTLTISSLQPEDFATYYCQQSNSFPLTFGQGTKVEIKR : reported pKd = ?
### Response 9.10

### Prompt Entry Anti-IL-12 antibody Ab1 variant F100aI VH/L46Q, Y49A VL (antibody, name in Kabat numbering, V domains shown, Ab1 with VH/VL interface substitutions; Kabat numbering) VH: QVQLVQSGAEVKKPGSSVKVSCKASGGTFSDYYLHWVRQAPGQGLEWMGWIDPENGDTEYAPKFQGRVTITADESTSTAYMELSSLRSEDTAVYYCARNKELRYIDVWGQGTLVTVSS VL: DIVMTQSPLSLPVTPGEPASISCRASQSISINLHWYQQKPGQAPRQLIAFASQSISGVPSRFSGSGSGTDFTLTISSLQPEDFATYYCQQSNSFPLTFGQGTKVEIKR : reported pKd = ?
### Response 8.46
